Reference for the values: patent US6124351A

Tested Target: N-cNOS (Rattus norvegicus, UniProt P29476)
Construct: a soluble cytosolic fraction of the finally obtained supernate was used as the crude enzyme sample of N-cNOS; from tissue; host or cells: cerebral cortex of normal untreated male SD rats, 100,000×g soluble cytosolic fraction
Sequence (P29476 whole entry): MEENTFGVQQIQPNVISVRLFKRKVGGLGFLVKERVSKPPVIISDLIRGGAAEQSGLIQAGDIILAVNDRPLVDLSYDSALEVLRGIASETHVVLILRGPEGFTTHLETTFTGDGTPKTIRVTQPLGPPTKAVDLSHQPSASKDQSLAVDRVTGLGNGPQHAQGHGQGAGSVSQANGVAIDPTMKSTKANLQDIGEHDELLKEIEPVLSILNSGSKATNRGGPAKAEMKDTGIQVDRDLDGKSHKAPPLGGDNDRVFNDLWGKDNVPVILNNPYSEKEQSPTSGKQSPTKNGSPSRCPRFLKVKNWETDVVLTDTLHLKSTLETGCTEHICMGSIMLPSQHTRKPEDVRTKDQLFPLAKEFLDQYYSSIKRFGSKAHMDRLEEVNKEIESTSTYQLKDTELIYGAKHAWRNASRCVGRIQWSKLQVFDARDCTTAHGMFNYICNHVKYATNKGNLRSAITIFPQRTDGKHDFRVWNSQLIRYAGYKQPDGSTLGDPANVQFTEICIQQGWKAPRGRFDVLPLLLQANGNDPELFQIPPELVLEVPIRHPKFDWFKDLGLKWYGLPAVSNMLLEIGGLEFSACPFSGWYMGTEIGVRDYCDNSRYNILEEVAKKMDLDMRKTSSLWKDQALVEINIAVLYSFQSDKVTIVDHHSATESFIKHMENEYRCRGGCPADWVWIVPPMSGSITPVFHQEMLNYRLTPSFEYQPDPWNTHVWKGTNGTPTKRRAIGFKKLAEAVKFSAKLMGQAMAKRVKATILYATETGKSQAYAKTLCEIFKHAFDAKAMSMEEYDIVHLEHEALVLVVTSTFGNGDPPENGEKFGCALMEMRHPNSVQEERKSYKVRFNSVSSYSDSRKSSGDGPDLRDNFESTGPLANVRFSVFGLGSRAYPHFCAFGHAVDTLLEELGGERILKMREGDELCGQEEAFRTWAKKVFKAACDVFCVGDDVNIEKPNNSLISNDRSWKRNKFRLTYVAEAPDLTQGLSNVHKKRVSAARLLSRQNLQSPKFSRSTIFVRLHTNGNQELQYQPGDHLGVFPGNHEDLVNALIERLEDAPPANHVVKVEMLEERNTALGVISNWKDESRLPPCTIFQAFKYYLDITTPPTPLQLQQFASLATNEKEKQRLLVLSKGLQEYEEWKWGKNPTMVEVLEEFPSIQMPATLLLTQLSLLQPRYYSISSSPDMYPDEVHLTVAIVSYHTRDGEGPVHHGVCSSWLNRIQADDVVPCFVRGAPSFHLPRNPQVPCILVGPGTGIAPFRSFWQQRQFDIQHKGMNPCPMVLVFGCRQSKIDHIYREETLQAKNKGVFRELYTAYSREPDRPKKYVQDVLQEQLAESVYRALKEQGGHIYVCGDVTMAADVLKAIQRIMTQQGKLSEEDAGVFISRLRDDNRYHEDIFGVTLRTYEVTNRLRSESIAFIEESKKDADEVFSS
Experiment Summary: biochemical
Particulars: index of selectivity, N-cNOS vs iNOS
Structures can show the parent of a compound that is named as a salt.
Endpoint Label: Ratio of I50 values iNOS/N-cNOS
One number for each entry.

Solved entries:
{"Compound": "N[C@@H](CCCNC1=NCCS1)C(=O)O [Example 8, dihydrochloride]", "Ratio of I50 values iNOS/N-cNOS": 9.6}
{"Compound": "CSC(=N)NCCCC[C@H](N)C(=O)O.Cl.Cl [Example 10]", "Ratio of I50 values iNOS/N-cNOS": 8.3}
{"Compound": "N=C(N)NN [AG, aminoguanidine, reference compound]", "Ratio of I50 values iNOS/N-cNOS": 1.3}
{"Compound": "C=CCNC(=N)NCCC[C@H](N)C(=O)O [L-ALA, N^G -allyl-L-arginine, reference compound]", "Ratio of I50 values iNOS/N-cNOS": 12.1}
{"Compound": "Cl.Cl.N=C(NCCC[C@H](N)C(=O)O)SCCF [Example 4]", "Ratio of I50 values iNOS/N-cNOS": 47.7}
{"Compound": "CCCSC(=N)NCCC[C@H](N)C(=O)O [Example 12]", "Ratio of I50 values iNOS/N-cNOS": 3.4}

Now examine the next entry.
-- ask Can you share its Ratio of I50 values iNOS/N-cNOS? I mean this compound: C=CCSC(=N)NCCC[C@H](N)C(=O)O.Cl.Cl [Example 6]
-- reply 2.6
